- system.name: ASIC1a F302A (Homo sapiens, UniProt P78348, F302A)
- Sequence (P78348 whole entry F302A): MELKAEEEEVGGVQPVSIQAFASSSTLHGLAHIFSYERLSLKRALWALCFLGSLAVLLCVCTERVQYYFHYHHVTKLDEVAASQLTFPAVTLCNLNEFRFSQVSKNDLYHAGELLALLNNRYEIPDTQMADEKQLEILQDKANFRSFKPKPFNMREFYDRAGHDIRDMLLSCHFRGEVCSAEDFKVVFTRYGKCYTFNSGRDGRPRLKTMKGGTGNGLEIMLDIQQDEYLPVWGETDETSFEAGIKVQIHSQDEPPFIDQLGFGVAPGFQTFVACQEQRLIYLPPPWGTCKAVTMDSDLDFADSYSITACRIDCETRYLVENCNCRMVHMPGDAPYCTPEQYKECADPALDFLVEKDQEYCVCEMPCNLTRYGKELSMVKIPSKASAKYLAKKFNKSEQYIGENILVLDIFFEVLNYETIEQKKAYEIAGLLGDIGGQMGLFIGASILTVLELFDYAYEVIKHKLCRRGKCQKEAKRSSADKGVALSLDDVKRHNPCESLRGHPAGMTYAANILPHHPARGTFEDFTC
- test.description: Isust/Ipeak, TEVC in Xenopus oocytes
- test.settings: pH5, n = 8–10, mean ± SEM, read-out: EC50 of FRRFa-mediated sustained current induction
- Description: To scan the pocket and predicted entrance area with mutagenesis, we chose the residues with a potential to form hydrophobic (Ile312, Val187), aromatic (Phe 257, Phe301, Phe302) or electrostatic (Glu254, Asp303, Ser199, Asp253, Glu315) interactions with the peptide. […] Electrophysiological measurements were performed 1–2 days after cRNA injection. Ion currents were recorded using two-electrode voltage-clamp at a holding potential of −60 mV with a Dagan TEV-200 amplifier (Minneapolis, MN). […]
pEC50: −log10 of the molar value. Peptide text beside a SMILES is read from it.

compound	pEC50
N=C(N)NCCC[C@H](NC(=O)[C@H](CCCNC(=N)N)NC(=O)[C@@H](N)Cc1ccccc1)C(=O)N[C@@H](Cc1ccccc1)C(N)=O [FRRFa, Phe-Arg-Arg-Phe-amide] (H-FRRF-NH2)	4.96
